- Test system: HOP-62
- PROTOCOL DETAILS: NCI tumour cell line growth inhibition, 48 h
Calls of active or inactive are those of the source. Rule as the data show it: active = GI50 up to about 1.1 µM and inactive = higher. Where a SMILES comes first, the peptide text is derived from it. The star is where a group is joined. Boc = CC(C)(C)OC(=O)*; OSu = O=C1CCC(=O)N1O*
// values below are reported GI50

Recorded results for 4 compounds are shown here.
{"columns": ["COMPOUND", "GI50"],
 "data": [
  ["COc1cccc(N2C(=O)/C(=C\\c3ccccc3)SC2c2cc(OC)c(OC)c(OC)c2)c1 (stereo not given)", "37.6 µM (inactive)"],
  ["Cc1ccc(NC(=O)CCc2n[nH]c(=S)o2)cc1", "> 100 µM (inactive)"],
  ["CC(NC(=O)C(NC(=O)OC(C)(C)C)C(C)C)C(=O)NCC(=O)ON1C(=O)CCC1=O (stereo not drawn) (Boc-Val-Ala-Gly-OSu; configuration not given here)", "> 100 µM (inactive)"],
  ["Cc1ccc(S(=O)(=O)NC(=O)NCC(N)=O)cc1", "> 100 µM (inactive)"]
]}

Query compound follows.
Data request: Entry COc1ccc2c(c1)C(N)=C(Cc1ccncc1)C2=O : reported GI50 = ?
Data returned: > 100 µM (inactive)

====

- Test system: CCRF-CEM
- PROTOCOL DETAILS: NCI tumour cell line growth inhibition, 48 h
Activity calls are given as the source filed them. No stated cut-off is given here; in the data, active = GI50 up to about 1.1 µM and inactive = higher.
QUANTITY KIND: GI50

Recorded results for 3 compounds are shown here.
{"columns": ["COMPOUND", "RESULT"],
 "data": [
  ["CNc1ncccc1Nc1cc(=O)n2c3cccnc3n(C)c2c1", "> 100 µM (inactive)"],
  ["C=C(C)C(=O)CC[C@@H](C)[C@H]1[C@@H](OC2OC(CO)C(O)C(O)C2O)C[C@@]2(C)[C@@H]3C[C@H](O)C4C(C)(C)[C@@H](OC5OC(CO)C(O)C(O)C5O)CC[C@@]45C[C@@]35CC[C@]12C (some centres undefined)", "64.9 µM (inactive)"],
  ["COc1cc(/C=C/C(=O)OC2C(O)C3CC(OC(=O)c4cc(OC)c(OC)c(OC)c4)CC2N3C)cc(OC)c1OC (centres undefined)", "17.9 µM (inactive)"]
]}

Query compound follows.
Data request: Entry O=C(Nc1cnc(O)nc1O)C(Cl)Cl : reported GI50 = ?
Data returned: > 100 µM (inactive)

====

// values below are reported GI50
- System: UACC-257
- PROTOCOL DETAILS: NCI tumour cell line growth inhibition, 48 h
The source made the active and inactive calls. Rule as the data show it: active = GI50 up to about 1.1 µM and inactive = higher.

{"columns": ["MOLECULE", "GI50"],
 "data": [
  ["Nn1c(SCC(=O)O)nc2ccccc2c1=O", "> 100 µM (inactive)"],
  ["CC(=O)CNC(=O)OC(C)(C)C", "> 100 µM (inactive)"],
  ["Nc1ccc2nc3n(c(=O)c2c1)CCCCC3", "> 100 µM (inactive)"],
  ["CC(C)(C)OC(=O)CCCCCNC(=O)CCCCCNC(=O)CCC(CN(CC(=O)OCc1ccccc1)CC(=O)OCc1ccccc1)N(CC(=O)OCc1ccccc1)CC(=O)OCc1ccccc1 (stereo unspecified)", "> 100 µM (inactive)"]
]}

Data request: Entry COc1ccc(CNNC(=O)c2cc[n+]([BH2-]C#N)cc2)cc1OC : reported GI50 = ?
Data returned: > 100 µM (inactive)

Data request: Entry O=c1oc2cc(O)ccc2c2oc3cc(O)ccc3c12 : reported GI50 = ?
Data returned: 87.9 µM (inactive)

Data request: Entry COC(=O)C1CCOC(C)N1C(=O)OC(C)(C)C (stereo unspecified) : reported GI50 = ?
Data returned: > 100 µM (inactive)

Data request: Entry CC(=O)OC/C=C/Cn1nc(Br)c(=O)[nH]c1=O : reported GI50 = ?
Data returned: > 100 µM (inactive)

Data request: Entry O=CC12CCCN1CCC2 : reported GI50 = ?
Data returned: > 100 µM (inactive)

Data request: Entry Nc1ncnc2c1ncn2C1OC(CSCc2ccc(Cl)cc2)C(O)C1O (stereo unspecified) : reported GI50 = ?
Data returned: 31.3 µM (inactive)

Data request: Entry O=C1c2ccccc2C(=O)N1C/C=N/NS(=O)(=O)c1cccc([N+](=O)[O-])c1 : reported GI50 = ?
Data returned: > 100 µM (inactive)
